Experiment: self-splicing fitness, log relative to wild type (ln ratio); higher = more splicing; Tetrahymena group I intron in knt gene, E. coli kanamycin selection, DiMSum; sequences stand for … in CUCUCU…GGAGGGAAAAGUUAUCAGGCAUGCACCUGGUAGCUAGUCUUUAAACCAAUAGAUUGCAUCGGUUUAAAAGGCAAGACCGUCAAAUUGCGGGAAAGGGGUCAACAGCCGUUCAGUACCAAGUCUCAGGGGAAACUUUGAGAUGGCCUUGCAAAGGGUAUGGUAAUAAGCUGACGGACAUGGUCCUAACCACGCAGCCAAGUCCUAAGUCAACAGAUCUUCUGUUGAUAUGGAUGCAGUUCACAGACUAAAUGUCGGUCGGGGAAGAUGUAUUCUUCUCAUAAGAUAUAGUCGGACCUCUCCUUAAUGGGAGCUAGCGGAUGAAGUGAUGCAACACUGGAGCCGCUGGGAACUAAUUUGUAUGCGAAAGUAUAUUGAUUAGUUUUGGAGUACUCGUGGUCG;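 also: selection with 25 µg/mL kanamycin versus none on LB agar overnight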
Details: 30 °C
value.type: self-splicing fitness (ln)
// print number alone

Ask: Query (sequence): GUUCAGCAAUAUUACGACGG ; field requested: self-splicing fitness (ln)
Reply: -4.42

Ask: Query (sequence): GGUUAGCAAUAUUACGUGGG ; field requested: self-splicing fitness (ln)
Reply: -2.93

Ask: Query (sequence): UUAAAGCAAUAUUACGUUAC ; field requested: self-splicing fitness (ln)
Reply: -3.66

Ask: Query (sequence): ACGGAGCAAUAUUACGAUGU ; field requested: self-splicing fitness (ln)
Reply: -3.19

Ask: Query (sequence): CGCAAGCAAUAUUACGGCGU ; field requested: self-splicing fitness (ln)
Reply: -3.52

Ask: Query (sequence): GUACAGCAAUAUUACGGGAU ; field requested: self-splicing fitness (ln)
Reply: -3.85

Ask: Query (sequence): AGACAGCAAUAUUACGGUGA ; field requested: self-splicing fitness (ln)
Reply: -1.49

Ask: Query (sequence): AAUGAGCAAUAUUACGCACA ; field requested: self-splicing fitness (ln)
Reply: -2.31

Ask: Query (sequence): AACGAGCAAUAUUACGGUUG ; field requested: self-splicing fitness (ln)
Reply: -3.98

Ask: Query (sequence): GCUAAGCAAUAUUACGCUUG ; field requested: self-splicing fitness (ln)
Reply: -3.24

Ask: Query (sequence): UAUAAGCAAUAUUACGACCG ; field requested: self-splicing fitness (ln)
Reply: -0.137

Ask: Query (sequence): GGGAAGCAAUAUUACGGACA ; field requested: self-splicing fitness (ln)
Reply: -0.34

Ask: Query (sequence): UUCCAGCAAUAUUACGCGAA ; field requested: self-splicing fitness (ln)
Reply: -1.64

Ask: Query (sequence): CCUGAGCAAUAUUACGCACA ; field requested: self-splicing fitness (ln)
Reply: -1.53

Ask: Query (sequence): GUCCAGCAAUAUUACGCAGA ; field requested: self-splicing fitness (ln)
Reply: -3.39

Ask: Query (sequence): CGUCAGCAAUAUUACGAGCU ; field requested: self-splicing fitness (ln)
Reply: -3.17
